This section presents compounds with their documented Change values.
tested on: Canis familiaris; test: Percent change in cardiac output in mongrel dogs at 10 mg/kg/hr administered intravenously; format: functional, Canis lupus familiaris, Heart; conditions: route intravenous
Outcome Measure: Change (%)

[[record]]
smiles_record = "CCCc1cc(CCC)n2nc(SCc3cccnc3)nc2n1.O=S(=O)(O)O"
readout_value = 20

[[record]]
smiles_record = "CCCc1cc(CCC)n2nc(SCc3ccc(C)cc3)nc2n1"
readout_value = 34.3

[[record]]
smiles_record = "CCCc1cc(CCC)n2nc(S(=O)(=O)Cc3ccc(C)cc3)nc2n1"
readout_value = 16.4

[[record]]
smiles_record = "CCCc1cc(CCC)n2nc(SCc3ccccc3)nc2n1"
readout_value = 31.5

[[record]]
smiles_record = "CCCc1cc(CCC)n2nc(SCc3ccncc3)nc2n1.O=S(=O)(O)O"
readout_value = 27

[[record]]
smiles_record = "CCCc1cc(CCC)n2nc(S(=O)(=O)Cc3ccccc3)nc2n1"
readout_value = 42.3

